test: protein stability index of a GFP-peptide fusion (GPS, HEK-293T) (PSI 1-6); higher = more stable; conditions: treatment: MLN4924 1 uM, 8 h; c terminus: a fixed tail appended;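 further: 24-mer peptide tiles fused after GFP, lentivirally expressed, FACS-sorted into six equal bins by GFP/DsRed ratio, decoded by Illumina sequencing, PSI is the read-weighted mean bin number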
ASSAY_METRIC: protein stability index

Reference set, count: 8
MIRESETKKGFYSLSVRHRQVKHY [SLA] : 2.94
NLKWLDLKDNPLDPVLAKVAGDCL [LRRC59] : 3.08
PWERAMGVDPQQKMELGIDLLAYG [MYOZ1] : 2.94
MVHINRALKLIIRLFLVEDLVDSL [RTN3] : 2.92
GGLIYWIGLTKAGMEGDWSWVDDT [CD207] : 3.07
ACGVILYILLVGYPPFWDEDQHKL [CAMK2B] : 2.93
ACDIRVAASSAKMGLVETKLAIIP [AUH] : 3.03
LDKLLQGGIETGSITEMFGEFRTG [RAD51] : 3.06

API: the following record is the query input.
Form field: reported protein stability index of RKPKVIECSYTSADGQRHHSKLLV [DHCR7]
2.93

====

assay: protein stability index of a GFP-peptide fusion (GPS, HEK-293T) (PSI 1-6); higher = more stable; details: treatment: MLN4924 1 uM, 8 h; c terminus: a fixed tail appended
ASSAY_METRIC: protein stability index
Numbers only.

HRMVVKIGDFGISKILSSKSKAYT [NEK8] : 2.14
EACGRCEEVPEAYVDIHTGLSGSG [PYCR3] : 4.57
INHLLKSPFSVHPKTGRISVPIDL [PRIM1] : 2.48
FPSAGQAQAAVQGPVGTDFKPLNS [ZNF207] : 4.16
DYSASEYRWHINFTTFFIDCMAAL [SCD] : 2.63
PDITSSRYRGLPAPGPSPADKKRS [WAS] : 5.27
WFSCQGPFDMDSCLSRHSINPYSN [DFFB] : 2.2
EGGKLPPPPPPSYDPDYIQCPYCQ [ZC2HC1A] : 4.45

Would you mind listing protein stability index for each of the following sequences?
1. PGAPRGNPPKASAAPDCTPSLEAG [MYCL]
2. LSKEYWDCLEGKKSKHAPRGTHLW [ELF3]
3. RSEQSVKLRRQVIQVVLNGMESYQ [ZER1]
4. KCFHEIITIGYRVYHSYDLPWFRT [CDS1]
5. VIRWIAHDTEIRKVHMKDVMSALW [GAN]

1: 5.36; 2: 3.17; 3: 2.32; 4: 2.87; 5: 2.08

====

I'd be grateful if you could share measured protein stability index for these entries.
test: protein stability index of a GFP-peptide fusion (GPS, HEK-293T) (PSI 1-6); higher = more stable; conditions: treatment: MLN4924 1 uM, 8 h; c terminus: a fixed tail appended
Give bare numbers.

Please review the following examples before continuing.
YFYLGGARGAGPPEPLRICPLHIS [TRIM35] : 2.04
EEQVILTEKDLLEDGFGEHPFYHC [SAT1] : 4.15
GDIASGYHYGVASCEACKAFFKRT [ESRRG] : 3.02
TRFTEEYQLFEELGKGAFSVVRRC [CAMK2A] : 2.54
ELCHHVAEVWVSGTIFIRNVLLFK [RETREG3] : 2.81

Can you give me protein stability index for all of these, one by one?
1. YEKKQTLGQNDTGFSCDGTANTFR [BTBD1]
2. YEAIAKHNQVEAAWLEGRIRQEFD [TRIM35]
3. RIGEATKPDGTVEQIGHILVSWLP [NET1]
4. STPKLTSRSAAQDLDRMGVMTLPS [PPFIA4]
5. EFSLVNVNLQRFGMNGQMLCNLGK [ETS2]
6. DSAQFTKALAIILHLLYLLEKVEC [FEM1A]

[4.15, 3.85, 2.56, 3.97, 2.58, 2.11]

Each sequence below has a recorded value; state its protein stability index.
1. LVDQVTGVSRGVGFIRFDKRIEAE [ELAVL3]
2. GEFPSPVSISIISSTSGGSGYGFR [KRT71]
3. FKHILRTEGAFGLYRGLAPNFMKV [SLC25A25]
4. SFNHNAHLTVHKRIHTGERPYMCK [ZNF8]
5. STPTTPGSTAITPGTPPSYSSRTP [MAP2]
6. PRKRHREDSDVEMVEDDSRKEMTA [MLH1]
7. GFENMDFFTLDLEHIADALRAIDF [TRIM63]
8. GHMLQHHGNSGHPLVLSYIDLSAW [HDAC6]

1. 2.88
2. 3.04
3. 2.29
4. 2.9
5. 5.06
6. 5.49
7. 2.25
8. 1.85

Quick one: protein stability index for ARRQHLKSVMLQIAATELEKEESR [TNNI2] ?
4.36
